The origin of these recorded values is ChEMBL document CHEMBL3526077.

assay: Half life in rat at 3 mg/kg, iv; format: ADME, organism-based; set-up: dose 3 mg/kg, route intravenous; conditions: in vivo
quantity_name: half-life (min)
State just the number; it will be interpreted in min.

-- ask Look up half-life for this compound: `CC(C)n1nc(-c2cnc(N)nc2-c2ccccc2)ccc1=O`
-- reply 24

====

experiment: Plasma protein binding in chimeric mouse transplanted with rat hepatocytes by equilibrium dialysis method; type: ADME, cell-free, Hepatocyte; conditions: read-out: PPB (converted)
quantity_name: fraction unbound
// keep it numeric: no unit symbol after the value

-- ask Look up fraction unbound for this compound: `CC(C)n1nc(-c2cnc(N)nc2-c2ccccc2)ccc1=O`
-- reply 0.233

====

assay: Oral bioavailability in rat at 3.2 mg/kg; assay type: ADME, organism-based; conditions: in vivo
quantity_name: bioavailability (%)
State just the number; it will be interpreted in %.

-- ask Look up bioavailability for this molecule: `CC(C)n1nc(-c2cnc(N)nc2-c2ccccc2)ccc1=O`
-- reply 34.6

====

assay: AUC in human at 10 mg, po; type: ADME, organism-based; settings: plasma
quantity_name: AUC (ng·h/mL)
State just the number; it will be interpreted in ng·h/mL.

-- ask Look up AUC for this compound: `CC(C)n1nc(-c2cnc(N)nc2-c2ccccc2)ccc1=O`
-- reply 2.19

====

assay: Plasma protein binding in chimeric mouse transplanted with human hepatocytes by equilibrium dialysis method; format: ADME, cell-free, Hepatocyte; settings: read-out: PPB (converted)
quantity_name: fraction unbound
// keep it numeric: no unit symbol after the value

-- ask Look up fraction unbound for this molecule: `CC(C)n1nc(-c2cnc(N)nc2-c2ccccc2)ccc1=O`
-- reply 0.205

====

test: Drug excretion in feces of chimeric mouse transplanted with human hepatocytes at 3 mg/kg, iv as single dose; assay type: ADME, organism-based, Hepatocyte; design: dose 3 mg/kg, route intravenous; settings: read-out: Drug excretion
quantity_name: dose excreted (%)
State just the number; it will be interpreted in %.

-- ask Look up dose excreted for this compound: `CC(C)n1nc(-c2cnc(N)nc2-c2ccccc2)ccc1=O`
-- reply 0.1

====

experiment: Intrinsic clearance in hepatocytes isolated from chimeric mouse transplanted with human hepatocytes assessed as per million cells at 10 uM after 2 hrs by LC/MS/MS analysis; assay type: ADME, cell-based, Hepatocyte; details: read-out: CLH
quantity_name: hepatocyte CLint at 10 µM (µL/min/1e6 cells)
State just the number; it will be interpreted in µL/min/1e6 cells.

-- ask Look up hepatocyte CLint at 10 µM for this compound: `CC(C)n1nc(-c2cnc(N)nc2-c2ccccc2)ccc1=O`
-- reply 10

====

assay: Total clearance in chimeric mouse transplanted with rat hepatocytes at 3 mg/kg, iv; format: ADME, organism-based, Hepatocyte; set-up: dose 3 mg/kg, route intravenous; conditions: read-out: CLH
quantity_name: clearance (mL/min/kg)
State just the number; it will be interpreted in mL/min/kg.

-- ask Look up clearance for this molecule: `CC(C)n1nc(-c2cnc(N)nc2-c2ccccc2)ccc1=O`
-- reply 34

====

assay: Oral bioavailability in chimeric mouse transplanted with rat hepatocytes at 3 mg/kg; type: ADME, organism-based, Hepatocyte
quantity_name: bioavailability (%)
State just the number; it will be interpreted in %.

-- ask Look up bioavailability for this compound: `CC(C)n1nc(-c2cnc(N)nc2-c2ccccc2)ccc1=O`
-- reply 52.6

====

assay: AUC in chimeric mouse transplanted with rat hepatocytes at 3 mg/kg, po; format: ADME, organism-based, Hepatocyte; set-up: dose 3 mg/kg, route oral
quantity_name: AUC (ng·h/mL)
State just the number; it will be interpreted in ng·h/mL.

-- ask Look up AUC for this molecule: `CC(C)n1nc(-c2cnc(N)nc2-c2ccccc2)ccc1=O`
-- reply 811

====

assay: Total clearance in chimeric mouse transplanted with human hepatocytes at 3 mg/kg, iv; format: ADME, organism-based, Hepatocyte; set-up: dose 3 mg/kg, route intravenous
quantity_name: clearance
Answers without a unit are incomplete; give the number and then its unit.

-- ask Look up clearance for this compound: `CC(C)n1nc(-c2cnc(N)nc2-c2ccccc2)ccc1=O`
-- reply 70.7 mL/min/kg

====

assay: Oral bioavailability in chimeric mouse transplanted with human hepatocytes at 3 mg/kg; format: ADME, organism-based, Hepatocyte
quantity_name: bioavailability
Answers without a unit are incomplete; give the number and then its unit.

-- ask Look up bioavailability for this compound: `CC(C)n1nc(-c2cnc(N)nc2-c2ccccc2)ccc1=O`
-- reply 29.4%

====

assay: Clearance in human at 10 mg, po; format: ADME, organism-based; conditions: in vivo
quantity_name: CL/F (mL/min/kg)
State just the number; it will be interpreted in mL/min/kg.

-- ask Look up CL/F for this molecule: `CC(C)n1nc(-c2cnc(N)nc2-c2ccccc2)ccc1=O`
-- reply 1090

====

assay: Drug excretion in feces of chimeric mouse transplanted with rat hepatocytes at 3 mg/kg, iv as single dose; format: ADME, organism-based, Hepatocyte; design: dose 3 mg/kg, route intravenous; details: read-out: Drug excretion
quantity_name: dose excreted (%)
State just the number; it will be interpreted in %.

-- ask Look up dose excreted for this molecule: `CC(C)n1nc(-c2cnc(N)nc2-c2ccccc2)ccc1=O`
-- reply 1.1

====

test: Half life in chimeric mouse transplanted with human hepatocytes at 3 mg/kg, iv; type: ADME, organism-based, Hepatocyte; parameters: dose 3 mg/kg, route intravenous
quantity_name: half-life (min)
State just the number; it will be interpreted in min.

-- ask Look up half-life for this compound: `CC(C)n1nc(-c2cnc(N)nc2-c2ccccc2)ccc1=O`
-- reply 42

====

experiment: Drug excretion in urine of chimeric mouse transplanted with rat hepatocytes at 3 mg/kg, iv as single dose; type: ADME, organism-based, Hepatocyte; set-up: dose 3 mg/kg, route intravenous; conditions: read-out: Drug excretion
quantity_name: dose excreted (%)
State just the number; it will be interpreted in %.

-- ask Look up dose excreted for this molecule: `CC(C)n1nc(-c2cnc(N)nc2-c2ccccc2)ccc1=O`
-- reply 0.1

====

test: Cmax in chimeric mouse transplanted with rat hepatocytes at 3 mg/kg, po; type: ADME, organism-based, Hepatocyte; parameters: dose 3 mg/kg, route oral
quantity_name: Cmax (ng/mL)
State just the number; it will be interpreted in ng/mL.

-- ask Look up Cmax for this molecule: `CC(C)n1nc(-c2cnc(N)nc2-c2ccccc2)ccc1=O`
-- reply 856

====

assay: Clearance in chimeric mouse transplanted with human hepatocytes at 3 mg/kg, po; type: ADME, organism-based, Hepatocyte; design: dose 3 mg/kg, route oral
quantity_name: CL/F

-- ask Look up CL/F for this molecule: `CC(C)n1nc(-c2cnc(N)nc2-c2ccccc2)ccc1=O`
-- reply 234 mL/min/kg

====

Biological target: aldehyde oxidase (Rattus norvegicus, UniProt Q9Z0U5)
Sequence (Q9Z0U5 whole entry): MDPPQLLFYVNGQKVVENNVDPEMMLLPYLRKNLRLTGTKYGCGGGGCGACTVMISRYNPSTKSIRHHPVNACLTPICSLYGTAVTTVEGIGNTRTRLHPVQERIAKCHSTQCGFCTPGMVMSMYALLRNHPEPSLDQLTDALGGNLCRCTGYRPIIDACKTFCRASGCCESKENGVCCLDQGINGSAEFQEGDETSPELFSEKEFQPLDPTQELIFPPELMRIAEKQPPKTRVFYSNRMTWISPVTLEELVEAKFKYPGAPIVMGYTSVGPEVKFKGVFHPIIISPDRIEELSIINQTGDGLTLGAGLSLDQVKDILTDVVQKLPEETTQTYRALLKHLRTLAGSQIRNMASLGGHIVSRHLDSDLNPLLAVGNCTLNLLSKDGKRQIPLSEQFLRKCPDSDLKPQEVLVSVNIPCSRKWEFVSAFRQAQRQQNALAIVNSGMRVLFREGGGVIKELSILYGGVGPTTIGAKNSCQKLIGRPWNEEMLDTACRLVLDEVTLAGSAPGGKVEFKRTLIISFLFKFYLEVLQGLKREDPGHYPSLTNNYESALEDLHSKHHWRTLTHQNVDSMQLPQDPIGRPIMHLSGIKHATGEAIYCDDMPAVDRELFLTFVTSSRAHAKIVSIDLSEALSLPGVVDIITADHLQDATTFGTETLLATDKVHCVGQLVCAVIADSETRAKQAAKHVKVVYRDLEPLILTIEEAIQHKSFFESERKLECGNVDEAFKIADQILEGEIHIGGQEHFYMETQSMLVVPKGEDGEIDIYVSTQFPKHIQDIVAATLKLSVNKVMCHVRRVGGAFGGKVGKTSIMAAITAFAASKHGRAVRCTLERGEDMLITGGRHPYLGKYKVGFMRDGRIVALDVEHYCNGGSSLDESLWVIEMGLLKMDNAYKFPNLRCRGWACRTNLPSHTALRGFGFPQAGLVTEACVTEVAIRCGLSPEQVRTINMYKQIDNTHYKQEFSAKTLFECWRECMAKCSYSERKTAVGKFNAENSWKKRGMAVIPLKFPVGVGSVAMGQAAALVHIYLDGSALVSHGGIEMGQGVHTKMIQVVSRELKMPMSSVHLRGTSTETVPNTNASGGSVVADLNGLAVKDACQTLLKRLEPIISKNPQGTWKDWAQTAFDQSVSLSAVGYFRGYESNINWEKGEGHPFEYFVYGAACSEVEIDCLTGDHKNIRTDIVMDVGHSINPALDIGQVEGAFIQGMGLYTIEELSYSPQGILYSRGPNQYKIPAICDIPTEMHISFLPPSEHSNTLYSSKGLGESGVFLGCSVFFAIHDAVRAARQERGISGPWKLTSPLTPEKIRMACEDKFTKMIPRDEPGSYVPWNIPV
Assay: Activity of aldehyde oxidase in hepatocytes isolated from chimeric mouse transplanted with rat hepatocytes assessed as enzyme-mediated drug metabolism measured as compound remaining at 10 uM after 2 hrs by LC/MS/MS analysis
Assay type: ADME, cell-based, Hepatocyte
Conditions: read-out: Stability
quantity_name: remaining at 2 h, 10 µM (%)
State just the number; it will be interpreted in %.

-- ask Look up remaining at 2 h, 10 µM for this compound: `CC(C)n1nc(-c2cnc(N)nc2-c2ccccc2)ccc1=O`
-- reply 58.4
